- ASSAY_INFO: MM1S myeloma cell viability, profiling panel, resazurin fluorescence, basal, 24 h, PK04 Diversity Set (AID 1174);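 also: MM1S multiple myeloma cell line; test concentration not given here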
- EXPERIMENTAL_SETUP: higher = more signal, called active from +8 up or from −8 down
MEASUREMENT_TYPE: z-score
Write the value as a bare number.

COCCOC(=O)N1C(=O)[C@@]2(c3cc(C#Cc4ccc(OC)cc4)ccc31)[C@H](c1ccccc1OCCO)N1[C@H](c3ccccc3)[C@H](c3ccccc3)OC(=O)[C@H]1[C@@H]2C(=O)N1CCCCCCC1 ... 0.0229
CCCNC(=O)[C@@H]1c2ccccc2C(=O)N(C(C)C)[C@H]1c1ccc(CO)cc1 ... 0.551
COCCOC(=O)N1C(=O)[C@@]2(c3cc(C#CC4=CCCCC4)ccc31)[C@H](c1ccc(OCCO)cc1)N1[C@H](c3ccccc3)[C@H](c3ccccc3)OC(=O)[C@H]1[C@@H]2C(=O)N1CCN(c2ncccn2)CC1 ... 0.0789
O=C(CS)NCCCCCNC(=O)[C@@H]1C[C@@H]2C(=O)N3CCC[C@H]3C(=O)N2[C@@H]1c1cccc(OCCO)c1 ... -0.374
C=C(CCCC)/C(=C/C[C@@H](OC(=O)c1ccncc1)c1ccccc1OCCO)c1cnc2ccccc2c1 ... -1.09
CCOC(=O)c1ccc(NC(=O)O[C@H]2[C@H](OC(=O)Nc3ccc4c(c3)OCO4)[C@@H](OC(=O)Nc3ccc4c(c3)OCO4)[C@@H](OC)O[C@@H]2CO)cc1 ... -0.849
CCCCC(=C=CC[C@@H](O)c1ccccc1OCCO)C[C@@H](O)COCc1ccccc1 ... 0.12
O=C1OCCC=C[C@H]2OC34C=CCN(Cn5nnc6ccccc65)C(=O)[C@H]3N(CCCCCCO)C(=O)[C@@H]4C12 (stereo not given in full) ... -2.51
Cn1cccc1C(O)C1C=CC2C(=O)NC(=O)C2N1Nc1ccc(Cl)cc1Cl (stereo not given) ... -1.86
C=CCC(OC(C)=O)[C@@H]1[C@@H](N(Cc2ccc(-c3ccccc3)cc2)C(=O)Cc2ccc(F)cc2)c2cc(OCCCO)ccc2N1C(=O)Cc1ccc(OC)cc1 (stereo not given in full) ... 0.0774

## Task // z-score lookup, key: N#Cc1ccc(C(O)C2C=CC3C(=O)N(c4ccccc4)C(=O)C3N2Nc2ccccc2)cc1 (stereo not given)
## Result -0.697

## Task Fill in the blank: the reported z-score of `COc1ccc([Si](C)(C)[C@@H]2[C@@H](CC(=O)N3Cc4ccccc4C[C@H]3CO)O[C@]3(C(=O)N(C)c4ccccc43)[C@H]2C)cc1` is ____.
## Result -2.97

## Task // returns reported z-score for input `CN(C)CCCNC(=O)[C@@H]1c2ccccc2C(=O)N(Cc2ccccc2Cl)[C@H]1c1ccc(CO)cc1`
## Result 0.608

## Task Sample `C=CCN1Cc2ccccc2[C@H]2OC(c3ccc(OCCCO)cc3)=N[C@@]2(CC=C)C1=O` — what was its z-score?
## Result -1.72

## Task Dear colleague, I am looking for the recorded z-score of the following molecule: `COC(=O)[C@@]1(Cc2ccc(F)cc2)[C@H]2c3cc(C(=O)N4CCCC4)n(CCc4ccc(O)c(O)c4)c3C[C@H]2CN1C(=O)c1ccccc1`
## Result -1.07
